This collection of values is drawn from ChEMBL document CHEMBL1201862.

System: UACC-62
Experiment: NCI tumour cell line growth inhibition, 48 h
Calls of active or inactive are those of the source. No stated cut-off is given here; in the data, active = GI50 up to about 1.1 µM and inactive = higher.

{"molecule": "CN(C)CCCNC(=O)N/N=C/c1ccc(O)cc1", "GI50": "> 100 µM (inactive)"}
{"molecule": "C=CCNC(NCC=C)=C(C(Cl)=C(Cl)Cl)[N+](=O)[O-]", "GI50": "> 100 µM (inactive)"}
{"molecule": "COc1ccc2c(c1)[n+]([O-])c(C#N)c(N1CCN(c3ccc([N+](=O)[O-])cc3)CC1)[n+]2[O-]", "GI50": "3.76 µM (inactive)"}
{"molecule": "COc1ccc2[nH]c3c(C)c4cc[n+](C)cc4c(C)c3c2c1", "GI50": "2.16 µM (inactive)"}
{"molecule": "CC(=O)O[C@H]1C(=O)[C@@]2(C)C([C@H](OC(=O)c3ccccc3)[C@]3(O)C[C@H](OC(=O)[C@H](O)[C@H](NC(=O)c4ccccc4)c4ccc(Cl)cc4)C(C)=C1C3(C)C)C1(OC(C)=O)CO[C@@H]1C[C@@H]2O (stereo partly drawn)", "GI50": "0.000376 µM (active)"}
{"molecule": "O=C(O)CCC(NC(=O)c1ccc(CNc2nc3cc(C(F)(F)F)ccc3nc2C(=O)O)cc1)C(=O)O (stereo not drawn)", "GI50": "> 100 µM (inactive)"}
{"molecule": "Cc1c[nH]c(C(=O)O)c1-c1ccc2c(-c3ccccc3)nc3ccccc3n12", "GI50": "20.7 µM (inactive)"}
{"molecule": "COc1cc2c(cc1OCCCN1CCOCC1)N=C[C@@H]1CCCN1C2=O", "GI50": "12.8 µM (inactive)"}
{"molecule": "CC(C)(Cc1ccccc1)N1C(=O)N1C(C)(C)Cc1ccccc1", "GI50": "23.8 µM (inactive)"}
{"molecule": "Nc1nc(N)c2nc(-c3ccco3)cnc2n1", "GI50": "22.4 µM (inactive)"}
{"molecule": "CC1(C)c2ccccc2N2C(c3ccccc3)=NOC21C (stereo not drawn)", "GI50": "> 100 µM (inactive)"}
{"molecule": "NC(=O)C1=NNc2ccccc2C(=O)N1c1ccccc1", "GI50": "> 100 µM (inactive)"}
{"molecule": "Cc1cc(NS(=O)(=O)c2ccc(/N=[N+](\\[O-])c3ccc(S(=O)(=O)Nc4cc(C)on4)cc3)cc2)no1", "GI50": "> 100 µM (inactive)"}
{"molecule": "COC1=NCc2ccccc2-c2ccccc21", "GI50": "> 100 µM (inactive)"}
{"molecule": "CCOC1OC(C)(C=C(C#N)C#N)CCC1C (stereo not drawn)", "GI50": "38 µM (inactive)"}
{"molecule": "COc1cc2c(cc1OC)-c1[nH]c3ccc(C#N)cc3c1CC(=O)N2", "GI50": "> 84.9 µM (inactive)"}
{"molecule": "CCOC(=O)CC1c2ccc(O)cc2OC(=O)C1c1ccc(N)cc1 (stereo not drawn)", "GI50": "> 100 µM (inactive)"}
{"molecule": "O=C(O)CCC(NC(=O)/C(=C/c1ccccc1)NC(=O)c1ccccc1)C(=O)O (stereo not drawn)", "GI50": "> 100 µM (inactive)"}

----------
System: MDA-N
Assay: NCI tumour cell line growth inhibition, 48 h
Calls of active or inactive are those of the source. No stated cut-off is given here; in the data, active = GI50 up to about 1.1 µM and inactive = higher.

{"cpdSmiles": "Nc1cnc2c(c1)c(=O)nc1n2CCS1", "GI50": "> 100 µM (inactive)"}
{"cpdSmiles": "Cc1[nH]c2ccccc2c1/C=N/NC(=O)c1cccc(I)c1", "GI50": "22.1 µM (inactive)"}
{"cpdSmiles": "Cc1cc(C)nc(NS(=O)(=O)c2ccc(NC(=O)NC(F)(F)F)cc2)n1", "GI50": "> 100 µM (inactive)"}

----------
System: TK-10
Experiment: NCI tumour cell line growth inhibition, 48 h
Activity calls are given as the source filed them. No stated cut-off is given here; in the data, active = GI50 up to about 1.1 µM and inactive = higher.

{"molecule": "COc1ccc2c(c1OC)C(=O)N1C2=Cc2c(cc3c(c2OC)OCO3)CC1N(C)C (stereo not given)", "GI50": "96.6 µM (inactive)"}
{"molecule": "CC(=O)NC1C(OCc2ccccc2)OC(CO)C(O)C1OC(C)C(=O)N[C@@H](C)C(=O)N[C@H](CCC(=O)NCCNCCNc1c2ccccc2nc2cccc([N+](=O)[O-])c12)C(N)=O (stereo not given in full)", "GI50": "0.135 µM (active)"}
{"molecule": "C=C1C(=O)OC2/C=C(\\C)C(OC(C)=O)C3OC3C(C)(O)CC(OC(=O)/C(C)=C/C)C12 (stereo not given)", "GI50": "11.9 µM (inactive)"}
{"molecule": "CC(CCc1ccc2c(c1)c(N)c1ccc(N)cc1[n+]2[O-])CC(C)(C)C (stereo not given)", "GI50": "1.83 µM (inactive)"}
{"molecule": "Cc1c2c(n(CCc3ccc(Cl)cc3)c1C)NN=C(C#N)S2(=O)=O", "GI50": "> 100 µM (inactive)"}

----------
System: DU-145
Experiment: NCI tumour cell line growth inhibition, 48 h
The source made the active and inactive calls. Cut-off read from the data, not from the text of the source: active = GI50 up to about 1.1 µM and inactive = higher.
Possible outcomes: yes = active, no = inactive

{"compound": "C=CC(=O)NCCC(=O)OCn1cc(F)c(=O)[nH]c1=O", "discreteLabel": "no"}
{"compound": "COc1nc2ncc([C@@H](OC(C)=O)[C@@H](COC(C)=O)OC(C)=O)nc2c(=O)n1C", "discreteLabel": "no"}
{"compound": "O=C1c2ccccc2CN1c1ccc(O)cc1", "discreteLabel": "no"}
{"compound": "CN(C)CCCNc1ncnc2c1ncn2C1OC(CO)C(O)C1O (centres undefined)", "discreteLabel": "no"}
{"compound": "CC[C@@]1(O)C(=O)OCc2c1cc1n(c2=O)Cc2c-1nc1ccccc1c2CC[Si](C)(C)C [COSITECAN]", "discreteLabel": "yes"}
{"compound": "O=C1NCC2(CCN(CCCC3(c4ccc(F)cc4)OCCO3)CC2)N1c1ccccc1", "discreteLabel": "no"}
{"compound": "COC(=O)C(Cc1cn(C(C)n2cc(CC(NC(C)=O)C(=O)OC)c3ccccc32)c2ccccc12)NC(C)=O (centres undefined)", "discreteLabel": "no"}
{"compound": "COC(=O)CSc1[nH]c2nc(C)nc(Nc3ccccc3)c2c1C#N", "discreteLabel": "no"}
{"compound": "COc1ccc(CC(O)CN2CCOCC2)cc1 (centres undefined)", "discreteLabel": "no"}
{"compound": "O=C(N/N=C(COc1ccc(Cl)cc1)\\N=C\\c1ccncc1)c1ccncc1", "discreteLabel": "no"}
{"compound": "COc1ccc2c(c1)[n+]([O-])c(C#N)c(N1CCN(c3ccc([N+](=O)[O-])cc3)CC1)[n+]2[O-]", "discreteLabel": "no"}
{"compound": "C[C@@H]1Nc2cc(NC(=O)OCCF)nc(N)c2N=C1c1ccccc1", "discreteLabel": "yes"}
{"compound": "Cc1cc2c(O)c(c1)CN(Cc1ccccc1)Cc1cc(C)cc(c1O)CN(Cc1ccccc1)Cc1cc(C)cc(c1O)CN(Cc1ccccc1)C2", "discreteLabel": "no"}
{"compound": "O=[N+]([O-])c1ccc(-c2nc3cc(Cl)ccc3[nH]2)cc1", "discreteLabel": "no"}

----------
Test system: CAKI-1
Test: NCI tumour cell line growth inhibition, 48 h
Active and inactive are the calls of the source. Rule as the data show it: active = GI50 up to about 1.1 µM and inactive = higher.
Outcomes: active, inactive

{"molecule": "CCCCc1ccc(Nc2nc(N)c3ncn(COCCO)c3n2)cc1", "testSystem": "CAKI-1", "discreteLabel": "inactive"}
{"molecule": "COc1ccc(C(SCCO)(c2ccccc2)c2ccccc2)cc1", "testSystem": "CAKI-1", "discreteLabel": "inactive"}
{"molecule": "O=C(/C=C/c1ccc2c(c1)OCO2)CC(=O)/C=C/c1ccc2c(c1)OCO2", "testSystem": "CAKI-1", "discreteLabel": "inactive"}
{"molecule": "O=c1c2ccccc2c2nc3ccccc3nc2n1C1CCCCC1", "testSystem": "CAKI-1", "discreteLabel": "inactive"}
{"molecule": "COC(=O)C(Cc1cn(C(C)n2cc(CC(NC(C)=O)C(=O)OC)c3ccccc32)c2ccccc12)NC(C)=O (configuration not stated)", "testSystem": "CAKI-1", "discreteLabel": "inactive"}
{"molecule": "Cc1cc(Cl)ccc1NC(=O)C1C(=O)N(c2ccc(Cl)cc2C)C(=O)/C1=N\\N (configuration not stated)", "testSystem": "CAKI-1", "discreteLabel": "inactive"}
{"molecule": "COc1cc(/C=C2\\C(=O)N(c3ccccc3Cl)C(c3ccccc3)S2(=O)=O)cc(OC)c1OC (configuration not stated)", "testSystem": "CAKI-1", "discreteLabel": "inactive"}
{"molecule": "COc1ccc2nc3n(c2c1)C(c1c(Cl)cccc1Cl)SC3 (configuration not stated)", "testSystem": "CAKI-1", "discreteLabel": "inactive"}
{"molecule": "Fc1cc(F)c(F)c(S)c1F", "testSystem": "CAKI-1", "discreteLabel": "inactive"}
{"molecule": "O/N=C1/Nc2cc(Cl)ccc2C(=S)N2CSCC12 (configuration not stated)", "testSystem": "CAKI-1", "discreteLabel": "inactive"}
{"molecule": "COC12c3ccccc3-c3ccccc3C1[C@@H](C(=O)O)[C@H]2C(=O)O (some centres not stated)", "testSystem": "CAKI-1", "discreteLabel": "inactive"}
{"molecule": "CC1(C2CCC3(C)OC3C2)CO1 (configuration not stated)", "testSystem": "CAKI-1", "discreteLabel": "inactive"}
{"molecule": "COC(=O)CSc1[nH]c2nc(C)nc(Nc3ccccc3)c2c1C#N", "testSystem": "CAKI-1", "discreteLabel": "inactive"}
{"molecule": "C#CCC1(C(=O)OCC)C(=O)c2ccccc2N(C)C1=O (configuration not stated)", "testSystem": "CAKI-1", "discreteLabel": "inactive"}
{"molecule": "CN(CC1NCCCC1O)C12CC3CC(CC(C3)C1)C2 (configuration not stated)", "testSystem": "CAKI-1", "discreteLabel": "inactive"}
{"molecule": "S=C(N/N=C/c1ccccn1)N1CC2CCC(CC2)C1", "testSystem": "CAKI-1", "discreteLabel": "active"}
{"molecule": "CNc1ccc([S+]([O-])Nc2ccc(OC)cc2)cc1 (configuration not stated)", "testSystem": "CAKI-1", "discreteLabel": "inactive"}
{"molecule": "C=C(N=[N+]=[N-])c1cn(C2CC(O)C(CO)O2)c(=O)[nH]c1=O (configuration not stated)", "testSystem": "CAKI-1", "discreteLabel": "inactive"}
{"molecule": "CC(=O)O[C@H]1C(=O)[C@@]2(C)C([C@H](OC(=O)c3ccccc3)[C@]3(O)C[C@H](OC(=O)[C@H](O)[C@H](NC(=O)c4ccccc4)c4ccc(Cl)cc4)C(C)=C1C3(C)C)C1(OC(C)=O)CO[C@@H]1C[C@@H]2O (some centres not stated)", "testSystem": "CAKI-1", "discreteLabel": "active"}
{"molecule": "COC(=O)[C@H]1C=C[C@@H](C)n2c(=O)c3cc4ccccc4cc3c(=O)n21", "testSystem": "CAKI-1", "discreteLabel": "inactive"}
{"molecule": "Nc1nc(N)c2nc(-c3ccco3)cnc2n1", "testSystem": "CAKI-1", "discreteLabel": "inactive"}
{"molecule": "Cc1ccc(SCC(OCn2cnc3c(Cl)nc(N)nc32)[C@H](C)F)cc1 (some centres not stated)", "testSystem": "CAKI-1", "discreteLabel": "inactive"}
{"molecule": "COc1ccc2c(c1OC)C(=O)N1C2=Cc2c(cc3c(c2OC)OCO3)CC1N(C)C (configuration not stated)", "testSystem": "CAKI-1", "discreteLabel": "inactive"}
{"molecule": "O=C1NC(=O)/C(=C\\c2ccncc2)N1", "testSystem": "CAKI-1", "discreteLabel": "inactive"}
{"molecule": "COc1cccc(/C=N/[N-]C(=S)Nc2ccccc2)c1[O-].O.[Zn+2]", "testSystem": "CAKI-1", "discreteLabel": "inactive"}
{"molecule": "Cc1ccccc1/N=N/c1ccc(N/N=C2/CCCNC2=O)c(C)c1", "testSystem": "CAKI-1", "discreteLabel": "inactive"}
{"molecule": "O=c1[nH]/c(=C/c2cccs2)c(=O)[nH]/c1=C/c1ccc(OCc2ccccc2)cn1", "testSystem": "CAKI-1", "discreteLabel": "active"}
{"molecule": "COc1ccc(NS(=O)(=O)c2ccc(NC(NC(=O)CC(C)C)(C(F)(F)F)C(F)(F)F)cc2)nn1", "testSystem": "CAKI-1", "discreteLabel": "inactive"}
{"molecule": "CCOP(=O)(O)C(Nc1ccc(/N=N/c2ccccc2)cc1)c1ccc(C(Nc2ccc(/N=N/c3ccccc3)cc2)P(=O)(O)OCC)cc1 (configuration not stated)", "testSystem": "CAKI-1", "discreteLabel": "inactive"}
{"molecule": "CN(C)NC(=O)NC12CC3CC(CC(C3)C1)C2", "testSystem": "CAKI-1", "discreteLabel": "inactive"}
{"molecule": "CN(/N=C/c1ccnc2ccccc12)c1ccc(Cl)cc1[N+](=O)[O-]", "testSystem": "CAKI-1", "discreteLabel": "inactive"}
{"molecule": "CC1(C(=O)O)CCCC1C(=O)O (configuration not stated)", "testSystem": "CAKI-1", "discreteLabel": "inactive"}
{"molecule": "O=C(n1c2ccccc2c2nnc(S)nc21)C(F)(F)F", "testSystem": "CAKI-1", "discreteLabel": "inactive"}
{"molecule": "NC(=O)c1cccc([C@@H]2O[C@H](CO)[C@@H](O)[C@H]2O)c1", "testSystem": "CAKI-1", "discreteLabel": "inactive"}
{"molecule": "NS(=O)(=O)c1ccc(CNc2nc(-c3cccs3)nc3ccc(I)cc23)cc1", "testSystem": "CAKI-1", "discreteLabel": "inactive"}
{"molecule": "COC(=O)c1nn(C(=N)c2ccc(Cl)cc2)c2c1CCCCC2", "testSystem": "CAKI-1", "discreteLabel": "inactive"}
{"molecule": "CC(=O)c1ccc(/N=N/N2CCCC2)cc1", "testSystem": "CAKI-1", "discreteLabel": "inactive"}
